- ASSAYED SYSTEM: Rac1 (Homo sapiens, UniProt P63000)
- PROCEDURE DETAILS: Multiplex bead-based flow cytometry dose-response of fluorescent guanine nucleotide binding
- ASSAY SETUP: read-out: EC50 Rac1; BODIPY-FL GTP binding; 2 h at 4°C; 1 mM MgCl2
VALUE TYPE: log10 EC50 (log10 of the value in nM)
Hi team, quick reminder: these entries are log10 of EC50 (nM).

Reference set (3 entries):
> print(dat)
                                   compound  assay.value
1  CC1(C)Cc2c(sc(NC(=S)NC(=O)c3ccccc3Br)c2C(=O)O)CO1         2.78
2  CCC1(C)Cc2c(sc(NC(=S)NC(=O)c3ccccc3)c2C(=O)O)CO1 (stereo not drawn)         1.72
3  COc1ccc(C(=O)NC(=S)Nc2sc3c(c2C(=O)O)CC(C)(C)OC3)cc1         2.11

// each compound listed below needs its log10 EC50
1. CC1(C)Cc2c(sc(NC(=O)NC(=O)c3ccccc3)c2C(=O)O)CO1
2. O=C(NC(=S)Nc1sc2c(c1C(=O)O)CCOC2)c1ccccc1
3. CC(C)(C)C1Cc2c(sc(NC(=S)NC(=O)c3ccccc3)c2C(=O)O)CO1 (stereo not drawn)

1: 2.54; 2: 2.26; 3: 2.15

// each compound listed below needs its log10 EC50
1. Cc1ccc(C(=O)NC(=S)Nc2sc3c(c2C(=O)O)CC(C)(C)OC3)cc1
2. CC1(C)Cc2c(sc(NC(=S)NC(=O)c3ccco3)c2C(=O)O)CO1

2.18
1.77

What measured log10 EC50 goes with CC1(C)Cc2c(sc(NC(=S)NC(=O)c3ccccc3F)c2C(=O)O)CO1 ? 2.26

---

- ASSAYED SYSTEM: Cdc42 (Homo sapiens)
- Sequence (P60953 whole entry): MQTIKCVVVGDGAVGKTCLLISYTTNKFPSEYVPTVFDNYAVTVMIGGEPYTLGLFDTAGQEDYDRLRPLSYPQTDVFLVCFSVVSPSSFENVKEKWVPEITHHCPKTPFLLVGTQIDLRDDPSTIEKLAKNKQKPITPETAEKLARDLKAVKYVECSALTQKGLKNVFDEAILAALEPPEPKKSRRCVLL
- PROCEDURE DETAILS: Multiplex bead-based flow cytometry dose-response of fluorescent guanine nucleotide binding
- ASSAY SETUP: read-out: EC50 Cdc42; BODIPY-FL GTP binding; 2 h at 4°C
Exercise: state measured log10 of EC50 for each of the molecules provided.
Hi team, quick reminder: these entries are log10 of EC50 (µM).

> print(dat)
                                   molecule  assay.value
1  CC1(C)Cc2c(sc(NC(=S)NC(=O)c3ccco3)c2C(=O)O)CO1         1.21

// each molecule listed below needs its log10 of EC50
1. CC1(C)Cc2c(sc(NC(=O)NC(=O)c3ccccc3)c2C(=O)O)CO1
2. Cc1ccccc1C(=O)NC(=S)Nc1sc2c(c1C(=O)O)CC(C)(C)OC2
3. CCC1(C)Cc2c(sc(NC(=S)NC(=O)c3ccccc3)c2C(=O)O)CO1 (stereo not drawn)
4. CC1(C)Cc2c(sc(NC(=S)NC(=O)c3cccc(Br)c3)c2C(=O)O)CO1
5. CC1(C)CCc2sc(NC(=S)NC(=O)c3ccccc3)c(C(=O)O)c2C1
6. CC1(C)Cc2c(sc(NC(=S)NC(=O)c3ccccc3Br)c2C(=O)O)CO1
7. O=C(NC(=S)Nc1sc2c(c1C(=O)O)CCOC2)c1ccccc1
8. COc1ccc(C(=O)NC(=S)Nc2sc3c(c2C(=O)O)CC(C)(C)OC3)cc1

1. 1.23
2. 0.42
3. 0.34
4. 2.28
5. -0.55
6. 1.67
7. -0.96
8. 0.08

// each molecule listed below needs its log10 of EC50
1. Cc1ccc(C(=O)NC(=S)Nc2sc3c(c2C(=O)O)CC(C)(C)OC3)cc1
2. CC1(C)Cc2c(sc(NC(=S)NC(=O)c3ccc(Br)cc3)c2C(=O)O)CO1
3. CC(C)(C)C1Cc2c(sc(NC(=S)NC(=O)c3ccccc3)c2C(=O)O)CO1 (stereo not drawn)

[-0.28, 1.41, 0.20]

---

Exercise: state measured log10(EC50) for each of the molecules provided.
- ASSAYED SYSTEM: Rac1 Q61L (Homo sapiens, UniProt P63000, Q61L)
- PROCEDURE DETAILS: Multiplex bead-based flow cytometry dose-response of fluorescent guanine nucleotide binding
- ASSAY SETUP: read-out: EC50 Rac1 Q61L; BODIPY-FL GTP binding; 2 h at 4°C
Hi team, quick reminder: these entries are log10 of EC50 (nM).

> print(dat)
                                   molecule                            assayed.system   value.type  assay.value
1  CC(C)(C)C1Cc2c(sc(NC(=S)NC(=O)c3ccccc3)c2C(=O)O)CO1 (centres unmarked) [CID 53377399]  Rac1 Q61L (Homo sapiens, UniProt P63000, Q61L)  log10(EC50)         2.18
2  CC1(C)Cc2c(sc(NC(=S)NC(=O)c3ccccc3Br)c2C(=O)O)CO1 [Compound 10]  Rac1 Q61L (Homo sapiens, UniProt P63000, Q61L)  log10(EC50)         2.62
3  CCC1(C)Cc2c(sc(NC(=S)NC(=O)c3ccccc3)c2C(=O)O)CO1 (centres unmarked) [CID 53377401]  Rac1 Q61L (Homo sapiens, UniProt P63000, Q61L)  log10(EC50)         1.66
4  CC1(C)Cc2c(sc(NC(=S)NC(=O)c3cccc(Br)c3)c2C(=O)O)CO1 [CID 53301936]  Rac1 Q61L (Homo sapiens, UniProt P63000, Q61L)  log10(EC50)         4.25
5  Cc1cccc(C(=O)NC(=S)Nc2sc3c(c2C(=O)O)CC(C)(C)OC3)c1 [CID 53377400]  Rac1 Q61L (Homo sapiens, UniProt P63000, Q61L)  log10(EC50)         3.15
6  CC1(C)Cc2c(sc(NC(=S)NC(=O)c3cccc(F)c3)c2C(=O)O)CO1 [CID 53301930]  Rac1 Q61L (Homo sapiens, UniProt P63000, Q61L)  log10(EC50)         2.74
7  CC1(C)Cc2c(sc(NC(=O)NC(=O)c3ccccc3)c2C(=O)O)CO1 [Compound 6]  Rac1 Q61L (Homo sapiens, UniProt P63000, Q61L)  log10(EC50)         2.60

Shifting focus to the molecule that follows.
What measured log10(EC50) goes with CC1(C)Cc2c(sc(NC(=S)NC(=O)c3ccccc3F)c2C(=O)O)CO1 [CID 53301935] ? 2.26

---

- ASSAYED SYSTEM: H-Ras (Homo sapiens)
- Sequence (P01112 whole entry): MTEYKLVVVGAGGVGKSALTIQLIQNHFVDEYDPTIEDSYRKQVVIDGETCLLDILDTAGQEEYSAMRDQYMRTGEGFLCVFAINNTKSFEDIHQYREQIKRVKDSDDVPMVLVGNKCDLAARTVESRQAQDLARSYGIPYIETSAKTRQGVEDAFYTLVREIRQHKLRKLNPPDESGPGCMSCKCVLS
- PROCEDURE DETAILS: Multiplex bead-based flow cytometry dose-response of fluorescent guanine nucleotide binding
- ASSAY SETUP: EC50 Ras, with 2 h incubation before BODIPY-FL GTP
VALUE TYPE: EC50 (nM)
One number for each entry, in nM.

What measured EC50 goes with CC1(C)Cc2c(sc(NC(=S)NC(=O)c3ccccc3)c2C(=O)O)CO1 ? 100

---

- ASSAYED SYSTEM: Rac1 (Homo sapiens, UniProt P63000)
- PROCEDURE DETAILS: Multiplex bead-based flow cytometry dose-response of fluorescent guanine nucleotide binding
- ASSAY SETUP: EC50 Rac1, concentration dependence on BODIPY-FL GDP
VALUE TYPE: pEC50
One number for each entry, as −log10 of the molar value.

What measured pEC50 goes with CC1(C)Cc2c(sc(NC(=S)NC(=O)c3ccccc3)c2C(=O)O)CO1 [Compound 1] ? 7.00

---

- ASSAYED SYSTEM: Rac1 Q61L (Homo sapiens, UniProt P63000, Q61L)
- PROCEDURE DETAILS: Multiplex bead-based flow cytometry dose-response of fluorescent guanine nucleotide binding
- ASSAY SETUP: EC50 Rac1 Q61L, concentration dependence on BODIPY-FL GDP
VALUE TYPE: pEC50
One number for each entry, as −log10 of the molar value.

What measured pEC50 goes with CC1(C)Cc2c(sc(NC(=S)NC(=O)c3ccccc3)c2C(=O)O)CO1 [Compound 1] ? 6.92

---

Exercise: state measured EC50 for each of the compounds provided.
- ASSAYED SYSTEM: H-Ras G12V (Homo sapiens, UniProt P01112, G12V)
- Sequence (P01112 whole entry G12V): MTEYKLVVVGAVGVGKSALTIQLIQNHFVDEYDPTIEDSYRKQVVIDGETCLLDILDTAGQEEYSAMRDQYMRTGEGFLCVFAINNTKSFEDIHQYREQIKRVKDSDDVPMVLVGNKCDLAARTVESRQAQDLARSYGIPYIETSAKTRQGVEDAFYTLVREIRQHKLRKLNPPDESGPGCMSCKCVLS
- PROCEDURE DETAILS: Multiplex bead-based flow cytometry dose-response of fluorescent guanine nucleotide binding
- ASSAY SETUP: read-out: EC50 H-Ras G12V; BODIPY-FL GTP binding; 2 h at 4°C

Reference set (6 entries):
> print(dat)
                                   compound  assay.value
1  CN1CCc2c(sc3nc(Nc4ccc(F)cc4)oc(=O)c23)C1    > 1000 µM
2  CC1(C)Cc2c(sc(NC(=S)NC(=O)c3ccco3)c2C(=O)O)CO1     0.065 µM
3  CC1(C)Cc2c(sc(NC(=S)NC(=O)c3ccc(F)cc3)c2C(=O)O)CO1     0.091 µM
4  CC(C)(C)OC(=O)c1c(NC(=S)NC(=O)c2ccccc2)sc2c1CCOC2    > 1000 µM
5  CC1(C)Cc2c(sc(NC(=S)NC(=O)c3ccccc3F)c2C(=O)O)CO1      0.12 µM
6  CC1(C)Cc2c(sc(NC(=O)NC(=O)c3ccccc3)c2C(=O)O)CO1      0.49 µM

// each compound listed below needs its EC50
1. COC(=O)c1c(N)sc2c1CC(C)(C)OC2
2. CCOC(=O)c1c(NC(=O)NC(C)(C)C)sc2c1CCN(C)C2
3. COc1ccc(C(=O)NC(=S)Nc2sc3c(c2C(=O)O)CC(C)(C)OC3)cc1

["> 1000 µM", "> 1000 µM", "0.17 µM"]
